pKi: −log10 of the molar value. Where a name gives a salt, the structure may show the parent alone.
Heads up, these molecules all have pKi values measured for human a-thrombin (Homo sapiens, UniProt P00734).

Kindly note: human a-thrombin (Homo sapiens, UniProt P00734), COc1c(F)cc(F)cc1CNc1cnc2n(c1=O)[C@H](C(=O)NCc1ccc(N)nc1C)CC2 [Compound 35, trifluoroacetate] , pKi value reported: 5.60 to 6.30

====

Structures can show the parent of a compound that is named as a salt.
Heads up, these compounds all have Ki values measured for human a-thrombin (Homo sapiens).

Study these solved cases before continuing.
>  <COMPOUND>
Cc1ccc(F)c(CNc2cnc3n(c2=O)[C@H](C(=O)NCc2ccc(N)nc2C)CC3)c1

>  <Ki>
0.5 to 2.5 µM

$$$$
>  <COMPOUND>
N#CC1C2CC1C2CNc1cnc2n(c1=O)[C@H](C(=O)N[C@@H]1CCc3nc(N)ccc31)CC2 (stereo partly drawn)

>  <Ki>
> 25 µM

$$$$
>  <COMPOUND>
Cc1cc(C)cc(CNc2cnc3n(c2=O)[C@H](C(=O)NCc2cc4c(s2)CNC4)CC3)c1 [Compound 21, trifluoroacetate]

>  <Ki>
2.5 to 10 µM

$$$$
>  <COMPOUND>
Cc1cccc(CNc2cnc3n(c2=O)[C@H](C(=O)N[C@@H]2CCc4nc(N)ccc42)CC3)c1

>  <Ki>
0.5 to 2.5 µM

$$$$
>  <COMPOUND>
Cc1cc(C)cc(CNc2cnc3n(c2=O)[C@H](C(=O)NCc2cnc4c(c2)CNC4)CC3)c1 [Compound 22, trifluoroacetate]

>  <Ki>
> 25 µM

$$$$

Kindly note: human a-thrombin (Homo sapiens), Cc1cc(C)cc(CNc2cnc3n(c2=O)[C@H](C(=O)N[C@H](C)c2ccc(N)nc2)CC3)c1 , Ki value reported: > 25 µM

Kindly note: human a-thrombin (Homo sapiens), COc1ccc(C)cc1CNc1cnc2n(c1=O)[C@H](C(=O)NCc1ccc(N)nc1C)CC2 [Compound 9, trifluoroacetate] , Ki value reported: 2.5 to 10 µM
